- Study Target: human Nav1.7 channels stably expressed in HEK 293 cells (Homo sapiens, UniProt Q15858)
- Construct: expressed in transfected cells; host or cells: HEK 293
- Sequence (Q15858 whole entry): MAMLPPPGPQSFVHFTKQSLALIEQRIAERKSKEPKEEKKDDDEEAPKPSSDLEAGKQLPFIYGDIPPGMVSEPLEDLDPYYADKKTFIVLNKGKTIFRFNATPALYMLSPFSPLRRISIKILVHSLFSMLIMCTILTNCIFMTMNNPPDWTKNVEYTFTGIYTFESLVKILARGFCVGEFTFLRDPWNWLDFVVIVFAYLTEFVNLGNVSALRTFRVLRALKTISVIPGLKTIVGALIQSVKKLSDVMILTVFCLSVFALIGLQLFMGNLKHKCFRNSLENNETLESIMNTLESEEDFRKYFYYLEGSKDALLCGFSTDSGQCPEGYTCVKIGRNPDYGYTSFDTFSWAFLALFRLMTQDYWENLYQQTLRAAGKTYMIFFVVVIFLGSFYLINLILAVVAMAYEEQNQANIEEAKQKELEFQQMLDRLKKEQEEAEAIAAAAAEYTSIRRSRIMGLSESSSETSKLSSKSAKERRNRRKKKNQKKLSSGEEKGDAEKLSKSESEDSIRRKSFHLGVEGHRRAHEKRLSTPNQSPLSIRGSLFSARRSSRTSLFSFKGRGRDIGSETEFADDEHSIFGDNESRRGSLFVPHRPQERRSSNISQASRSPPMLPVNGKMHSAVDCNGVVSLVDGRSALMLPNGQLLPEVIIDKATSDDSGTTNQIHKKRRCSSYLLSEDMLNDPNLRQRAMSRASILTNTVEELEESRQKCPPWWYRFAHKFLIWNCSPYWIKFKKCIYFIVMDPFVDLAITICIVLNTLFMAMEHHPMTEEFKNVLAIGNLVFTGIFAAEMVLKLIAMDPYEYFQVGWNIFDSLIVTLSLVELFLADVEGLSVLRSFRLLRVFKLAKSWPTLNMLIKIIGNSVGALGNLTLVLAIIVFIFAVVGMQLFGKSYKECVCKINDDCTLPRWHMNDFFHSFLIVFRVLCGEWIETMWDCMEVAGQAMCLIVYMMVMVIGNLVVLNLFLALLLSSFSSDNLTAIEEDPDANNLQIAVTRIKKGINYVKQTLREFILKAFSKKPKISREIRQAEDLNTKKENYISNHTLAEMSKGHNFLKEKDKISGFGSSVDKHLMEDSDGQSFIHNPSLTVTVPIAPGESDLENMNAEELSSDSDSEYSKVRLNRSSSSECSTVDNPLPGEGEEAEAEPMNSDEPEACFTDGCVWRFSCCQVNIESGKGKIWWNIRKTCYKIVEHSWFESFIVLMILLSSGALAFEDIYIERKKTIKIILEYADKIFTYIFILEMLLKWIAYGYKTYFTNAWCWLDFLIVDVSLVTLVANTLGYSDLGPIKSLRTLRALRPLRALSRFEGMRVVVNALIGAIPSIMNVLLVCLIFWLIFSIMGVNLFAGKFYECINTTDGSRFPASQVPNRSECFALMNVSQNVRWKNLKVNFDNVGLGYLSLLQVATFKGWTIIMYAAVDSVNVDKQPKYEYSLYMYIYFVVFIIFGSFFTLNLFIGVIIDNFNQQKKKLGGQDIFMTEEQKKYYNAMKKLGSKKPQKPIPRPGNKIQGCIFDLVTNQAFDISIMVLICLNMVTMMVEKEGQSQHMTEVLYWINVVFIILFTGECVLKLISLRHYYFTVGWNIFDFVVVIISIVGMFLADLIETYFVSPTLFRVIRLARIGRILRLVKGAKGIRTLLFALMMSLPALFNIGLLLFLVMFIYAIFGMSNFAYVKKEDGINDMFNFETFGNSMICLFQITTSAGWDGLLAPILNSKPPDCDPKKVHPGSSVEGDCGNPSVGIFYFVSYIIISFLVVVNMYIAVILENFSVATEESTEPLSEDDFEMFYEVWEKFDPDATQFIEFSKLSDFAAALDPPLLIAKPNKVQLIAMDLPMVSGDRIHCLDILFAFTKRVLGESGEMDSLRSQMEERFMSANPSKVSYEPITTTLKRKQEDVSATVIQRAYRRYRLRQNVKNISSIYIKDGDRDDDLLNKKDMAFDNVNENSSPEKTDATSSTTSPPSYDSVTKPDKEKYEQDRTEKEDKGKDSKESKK
- Protocol Notes: Qube automated patch-clamp assay, inhibition of sodium current
- Assay type: cell-based
- Run Parameters: holding potential −75 mV; max concentration tested 33750 nM; read-out: NaV1.7 (nM); −75 mV
// classify: if (IC50 < 200 nM) 1 else -1

# TODO verify IC50 < 200 nM strictly for this compound: C[C@@H](N)C(CNc1ccc(S(=O)(=O)Nc2ncns2)cc1F)CC1(N)CCC1 (single isomer, unassigned) [Example 89] -1

Next up: CCC(N)C[C@@H](CNc1cc(F)c(S(=O)(=O)Nc2ncns2)cc1OC)[C@@H](C)N (stereo partly drawn) [Example 83] 1

Consider next the compound CC(C)C(N)CC(CNc1cc(F)c(S(=O)(=O)Nc2ncns2)cc1Br)[C@@H](C)N (single isomer, unassigned) [Example 108] in the same way. 1

Another compound to check: C[C@@H](N)C(COc1ncc(S(=O)(=O)Nc2ncc(F)s2)cc1Cl)CC1(CCN)CCC1 (single isomer, unassigned) [Example 6] 1

Again, but for C[C@@H](N)C(CNc1cc(F)c(S(=O)(=O)Nc2ncns2)cc1F)C[C@@]1(C)CCC[C@@H]1CN (single isomer, unassigned) [Example 96] -1
